Biological target: T1, soluble human RGMc (human, UniProt Q6ZVN8 36-400)
T1 construct: also called huRGMc; soluble hRGMc
T1 sequence: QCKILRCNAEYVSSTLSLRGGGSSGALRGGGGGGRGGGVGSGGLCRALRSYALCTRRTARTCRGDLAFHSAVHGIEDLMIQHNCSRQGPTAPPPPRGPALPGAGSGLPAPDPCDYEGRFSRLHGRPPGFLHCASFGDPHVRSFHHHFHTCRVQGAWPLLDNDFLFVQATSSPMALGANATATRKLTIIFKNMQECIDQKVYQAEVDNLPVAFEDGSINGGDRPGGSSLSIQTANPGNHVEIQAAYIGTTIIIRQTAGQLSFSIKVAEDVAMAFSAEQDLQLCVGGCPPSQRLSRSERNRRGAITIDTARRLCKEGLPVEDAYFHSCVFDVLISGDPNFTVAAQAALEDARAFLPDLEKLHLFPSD
Assay: SPR (BIAcore);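 note: Anti-HJV antibodies, binding affinity to soluble human RGMc measured by BIAcore surface plasmon resonance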
observable: koff (s⁻¹)
Just the number please, in s⁻¹, no unit attached.

koff recorded for this binder, hHA-011 (antibody, human IgG1, kappa, L234A L235A, V domains shown, hIgG1 L234A, L235A, kappa) VH: EVQLVESGGGLVQPGGSLRLSCAASGFTFSNYGMNWVRQAPGKGLEWIGMIYYDSSEKHYADSVKGRFTISRDNSKNTLYLQMNSLRAEDTAVYYCAKGSTPDYWGQGTMVTVSS VL: DVVLTQSPLSLPVTLGQPASISCRSSQSLEDSDGGTFLEWFQQRPGQSPRLLIYDVSSRFSGVPDRFSGSGSGTDFTLKISRVEAEDVGVYYCFQATHDPLSFGQGTKLEIKR , is 0.0014

koff recorded for this binder, hHA-007 (antibody, human IgG1, kappa, L234A L235A, V domains shown, hIgG1 L234A, L235A, kappa) VH: EVQLVESGGGLVQPGGSLRLSCAASGFTFSNYGMNWIRQAPGKGLEWIGMIYYDSSDKHYADSVKGRFTISRDNSKNTLYLQMNSLRAEDTAVYYCAKGTTPDVWGQGTMVTVSS VL: DVVLTQSPLSLPVTLGQPASISCRSSQSLEESDGYTFLHWFQQRPGQSPRLLIYEVSNRFSGVPDRFSGSGSGTDFTLKISRVEAEDVGVYYCFQATHDPVTFGQGTKLEIKR , is 0.00215

koff recorded for this binder, hHA-010 (antibody, human IgG1, kappa, L234A L235A, V domains shown, hIgG1 L234A, L235A, kappa) VH: EVQLVESGGGLVQPGGSLRLSCAASGFTFSNYGMNWVRQAPGKGLEWIGMIYYDSSEKHYADSVKGRFTISRDNSKNTLYLQMNSLRAEDTAVYYCAKGTTPDKWGQGTMVTVSS VL: DVVLTQSPLSLPVTLGQPASISCRSSQSLEESDGYTFLEWFQQRPGQSPRLLIYEVSHRFSGVPDRFSGSGSGTDFTLKISRVEAEDVGVYYCFQATHDPLTFGQGTKLEIKR , is 0.0044

koff recorded for this binder, hHA-004 (antibody, human IgG1, kappa, L234A L235A, V domains shown, hIgG1 L234A, L235A, kappa) VH: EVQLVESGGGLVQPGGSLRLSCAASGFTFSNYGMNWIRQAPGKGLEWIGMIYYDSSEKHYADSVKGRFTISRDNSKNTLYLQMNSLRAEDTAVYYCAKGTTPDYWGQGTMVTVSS VL: DVVLTQSPLSLPVTLGQPASISCRSSQSLESSDGDTFLEWFQQRPGQSPRLLIYDVSTRFSGVPDRFSGSGSGTDFTLKISRVEAEDVGVYYCFQVTHDPVTFGQGTKLEIKR , is 0.00104

koff recorded for this binder, hHA-003 (antibody, human IgG1, kappa, L234A L235A, V domains shown, hIgG1 L234A, L235A, kappa) VH: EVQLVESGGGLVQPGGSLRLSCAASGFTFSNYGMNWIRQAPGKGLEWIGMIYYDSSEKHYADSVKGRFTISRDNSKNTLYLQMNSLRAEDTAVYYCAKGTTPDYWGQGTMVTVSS VL: DVVLTQSPLSLPVTLGQPASISCRSSQSLETSDGDTFLEWFQQRPGQSPRLLIYEVSNRFSGVPDRFSGSGSGTDFTLKISRVEAEDVGVYYCFQVTHDPVTFGQGTKLEIKR , is 0.0024

The measurements presented in this section are drawn from patent US20240417458A1.
